# experimental.system: Voltage-gated potassium channel subunit beta-2 (Rattus norvegicus)
# experiment.summary: inhibitors of rat Kvbeta2 reductase activity – biochemical, NADPH fluorescence, primary screen (AID 622);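 note: slope of raw intensity against log time taken from 70 to 1610 s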
# assay.context: recombinant KvBeta, 4-cyanobenzaldehyde reduction, at 10 µM, stronger effect = higher value
Recorded fluorescence slope for the following compounds
Would you mind answering with just the numeric figure?

Cc1cc2ncn(S(=O)(=O)c3ccc(S(=O)(=O)N4CCOCC4)cc3)c2cc1C: -0.518
O=C(C1=C(O)C(=O)N(Cc2ccccc2)C1c1ccncc1)c1ccco1 (stereo not drawn): -0.192
CCOc1ccc2nc(N3CCC(C(=O)N4CCN(C5CCCCC5)CC4)CC3)sc2c1: -0.553
CCc1nnc(NC(=O)CSc2nnc(-c3ccoc3C)n2CC(C)C)s1: -0.367
O=C(c1cc(-c2ccco2)nn1-c1cccc(Cl)c1)N1CCCCC1: -0.588
CCCCN(CCCC)C(=O)CN(C)S(=O)(=O)c1ccc2c(c1)n(C)c(=O)c(=O)n2C: -0.466
CC(C)CN(CC(C)C)c1nc(N)c(C#N)c(CC#N)c1C#N: -0.318
C=C(c1cccc2ccccc12)P(=O)(O)O: -0.493

Which fluorescence slope is reported with Voltage-gated potassium channel subunit beta-2 (Rattus norvegicus) for this entry: `CC(C)N(C(=O)COC(=O)c1ccc(O)cc1)C(C)C` ?
-0.553

Field: fluorescence slope (Voltage-gated potassium channel subunit beta-2 (Rattus norvegicus)). Entry: `CCCCSc1nc(CCC)cc(=O)[nH]1`
-0.34

What reported fluorescence slope corresponds to `CCOC(=O)C1CCN(CC(=O)Nc2c(C(=O)OC)[nH]c3ccc(Cl)cc23)CC1` on Voltage-gated potassium channel subunit beta-2 (Rattus norvegicus)?
-0.383

Request - read-out fluorescence slope | tested on Voltage-gated potassium channel subunit beta-2 (Rattus norvegicus) | compound `COc1ccc(S(=O)(=O)NCc2ccc(C(=O)O)cc2)cc1`
-0.624

For Voltage-gated potassium channel subunit beta-2 (Rattus norvegicus), provide fluorescence slope of `CCOc1ccc(S(=O)(=O)Nc2cccc(Cl)c2)cc1` please.
-0.627

###

# experiment.summary: inhibitors of TNFa-induced NFkB p65 translocation, primary screen, imaging, HUVEC, MLSMR starter and 10KST1 sets (AID 438);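 note: compound added about 3h40 before a 20 min TNFalpha stimulation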
# assay.context: HUVEC TNFa-induced p65 nuclear translocation; measured here: nuclei count (cytotoxicity indicator), at 2.08 µM
Threshold rule: cell count greater than or equal to 400 is class 1; below that, class 0.

These solved cases illustrate the format of a correct answer.
Cc1noc(C)c1C(=O)N1CCN(C(=O)c2sc3cc(Cl)ccc3c2Cl)CC1: class 1
COCCn1c(=O)[nH]c2cc(C(=O)N3CCN(c4ccccc4OC)CC3)ccc2c1=O: class 1
CN(C)c1cccc(C(=O)OCC(=O)NCc2ccco2)c1: class 1
c1cncc(-c2nc3c4ccccc4nc(N4CCC(N5CCCCC5)CC4)n3n2)c1: class 1
O=C(Cn1ncc2c(=O)oc3ccccc3c21)Nc1nc2ccccc2s1: class 0
Cc1ccc(C)c2[nH]c(=O)c(CCNC(=O)c3ccc(Br)o3)cc12: class 0

hey, is cell count for this one >= 400? `O=C(CSc1nc(-c2ccco2)cc(C(F)(F)F)n1)N1CCCc2ccccc21`
class 1

Could you tell me if the measured cell count of `CCOC(=O)c1c(NC(=O)CSc2nnc(-c3cccnc3)o2)sc(C)c1C` reaches 400 or more?
class 1

Please check the record COc1ccc2ccccc2c1CN1CCCC(CO)C1 (centres undefined) and state if its cell count is at or above 400.
class 1

I'd appreciate it if you could say whether `CC(=O)NC1(c2nnnn2CCOC(=O)Nc2ccc(Cl)cc2)CCCCC1` has cell count at least equal to 400.
class 1

Can `O=C(NCCCNC1CCCCC1)c1ccc(/C=N/O)nc1` be said to have cell count at or above 400?
class 0

hey, is cell count for this one >= 400? `Cc1cc(C)nc(NS(=O)(=O)c2ccc(NC(=O)Cn3c(=O)oc4ccccc43)cc2)n1`
class 1

# check: cell count of `O=C(OCN1C(=O)c2ccccc2C1=O)c1ccc2c(=O)n3c(nc2c1)CCC3` is greater than or equal to 400
class 0

cell count >= 400 for `C(/CCc1ccccc1)=N\n1cnnc1` ?
class 0

###

Each entry below lists one item and its recorded nuclei count value.
# experiment.summary: endothelial E-selectin expression blockers – imaging, HUVEC, immunofluorescence, MLSMR starter and 10KST1 sets, primary screen (AID 487);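 note: 100% = median nuclei count of all wells on the same plate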
# assay.context: HUVEC TNFalpha-induced E-selectin immunofluorescence imaging, at 2 µM; measured here: cell number, toxicity
Record the value in %, omitting the unit from your answer.

CCCCN(CCCC)CCCNC(=O)CC1Oc2ccc(C)cc2NC1=O (centres undefined): 92.1
O=c1c2nnn(Cc3ccc(Cl)cc3)c2ncn1Cc1ccc(F)cc1: 111
COc1ccc(-c2nnc(SCC(=O)N3CCCCC3)o2)cc1OC: 123
O=C(NCc1ccco1)C1CCN(S(=O)(=O)N2CCC3(CC2)OCCO3)CC1: 72.6
Clc1ccc(OCCCn2cncn2)cc1Cl: 94.7
CC1CCN(c2oc(-c3cccc4ccccc34)nc2C#N)CC1: 101
CCCC(=O)Nc1ccc(NC(=O)c2ccccc2OC)cn1: 96.3
CCn1c(CCC(=O)Nc2nc3c(s2)CCCC3)nc2cc(S(=O)(=O)N(C)C)ccc21: 123
CN(C)S(=O)(=O)c1ccc(S(=O)(=O)N(Cc2ccco2)Cc2ccccc2Cl)cc1: 99.8
CCNc1ccc(S(=O)(=O)C(F)(F)F)cc1NC(=O)C12CCC(CC1)C2: 101

Fill blank: measured nuclei count of the molecule `CCOC(=O)N1CCN(C(=O)CN(Cc2ccccc2)S(=O)(=O)c2ccc(OC)c(C)c2)CC1` is ____.
70.5

Endpoint output: nuclei count of `C=CCNC(=O)c1ccc(Cl)cc1Cl` . Value?
91.8

Item under review: CC1CCCN(S(=O)(=O)c2ccc(C(=O)Nc3nnc(-c4ccccc4Cl)o3)cc2)C1 (centres undefined) . Reported nuclei count?
110

GET /values?readout=nuclei count&item= `Cc1ccc2cc(C#N)c(N3CCCC3)nc2c1C`
110

Look up nuclei count: `Fc1ccc(-c2nnc3ccc(N4CCCC4)nn23)cc1`
120

Given the entry Cc1ccc2cc(C(c3nnnn3CC3CCCO3)N3CCc4ccccc4C3)c(=O)[nH]c2c1 (centres undefined) , report its measured nuclei count.
120

Returns the measured nuclei count for the input molecule. Input: CCOc1ccc(NC2c3ccccc3C(=O)N2Cc2ccco2)cc1 (centres undefined)
91.8

Given `CCCc1cc(=O)oc2cc(C)cc(OC(=O)c3ccco3)c12` , state its recorded nuclei count.
108

Report nuclei count for `O=C(CN1CCSCC1)N1CCc2[nH]c3ccc(Br)cc3c2C1` please.
102

###

Catalogue of NADPH fluorescence slope values
# experimental.system: Voltage-gated potassium channel subunit beta-2 (Rattus norvegicus) (UniProt P62483)
# Sequence (P62483 whole entry, looked up): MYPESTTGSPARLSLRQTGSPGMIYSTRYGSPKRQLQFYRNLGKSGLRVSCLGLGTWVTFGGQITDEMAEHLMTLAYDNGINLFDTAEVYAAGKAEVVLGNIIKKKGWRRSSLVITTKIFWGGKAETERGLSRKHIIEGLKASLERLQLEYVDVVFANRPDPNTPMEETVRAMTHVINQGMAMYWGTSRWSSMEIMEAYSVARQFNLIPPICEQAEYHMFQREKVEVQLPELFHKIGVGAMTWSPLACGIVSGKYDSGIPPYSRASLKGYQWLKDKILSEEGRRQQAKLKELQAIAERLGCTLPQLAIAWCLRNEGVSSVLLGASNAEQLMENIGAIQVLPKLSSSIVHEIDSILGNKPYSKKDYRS
# experiment.summary: enhancers of rat Kvbeta2 NADPH turnover – biochemical, NADPH fluorescence, primary screen (AID 623);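 note: fluorescence intensity change per second fitted from 20 to 320 s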
# assay.context: Recombinant KvBeta, NADPH fluorescence decrease slope, 10 min; at 10 µM; stronger effect = lower value
// response body must contain only the number

The cases that follow already have their NADPH fluorescence slope on record.
CC(=O)Nc1ccc(Cl)cc1C(=O)O: 8e-06
O=C(Nc1ccccc1-c1nc2ccccc2o1)c1ccc2c(c1)OCCO2: 1.2e-05
CCN(C(=O)c1cc2cc3ccc(C)cc3nc2o1)c1ccc(OC)cc1: -1.6e-05
CS(=O)(=O)c1ccc2nc(NC(=O)CCC(=O)c3cccs3)sc2c1: 1.3e-06

Next item in the queue.
Request: NADPH fluorescence slope, test system Voltage-gated potassium channel subunit beta-2 (Rattus norvegicus) (UniProt P62483), entry `Cc1ccc(Nc2nc(N)nc(CN3CCN(Cc4ccc5c(c4)OCO5)CC3)n2)cc1`
-4.6e-05

###

# experimental.system: Alpha-2C adrenergic receptor (Homo sapiens) (UniProt P18825)
# Sequence (P18825 whole entry, looked up): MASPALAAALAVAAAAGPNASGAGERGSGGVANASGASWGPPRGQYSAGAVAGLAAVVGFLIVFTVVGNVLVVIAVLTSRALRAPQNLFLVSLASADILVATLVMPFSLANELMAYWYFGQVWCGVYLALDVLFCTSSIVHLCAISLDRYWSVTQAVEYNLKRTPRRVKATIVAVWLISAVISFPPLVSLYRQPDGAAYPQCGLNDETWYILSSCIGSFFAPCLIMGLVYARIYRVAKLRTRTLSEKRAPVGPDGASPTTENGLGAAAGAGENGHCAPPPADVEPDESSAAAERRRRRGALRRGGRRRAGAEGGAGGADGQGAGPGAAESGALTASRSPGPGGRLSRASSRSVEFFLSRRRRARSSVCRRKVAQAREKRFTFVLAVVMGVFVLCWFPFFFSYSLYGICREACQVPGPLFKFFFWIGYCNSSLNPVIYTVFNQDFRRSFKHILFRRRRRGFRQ
# experiment.summary: compounds altering alpha2C-coupled GIRK flux – cell-based, HEK293 alpha2C/GIRK1/2, thallium flux, primary screen (AID 624);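 note: slope of fluorescence ratio to pre-addition baseline per second over 15 to 24 s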
# assay.context: thallium flux BTC fluorescence, at 10 µM, actives lie on both sides
Mark each entry 1.0 if its slope sits below 0.006, and 0.0 for all others.

COc1ccc(-c2nsc(SCC(=O)Nc3cc(C)on3)n2)cc1: 1.0
COC(=O)C1=C(C)Nc2ncnn2C1c1ccc(C)o1 (stereo not drawn): 1.0
CC1(C)CC(=O)C(CC(=O)NC(=O)NCc2ccccc2)=C(O)C1: 1.0

# next compound below
Is the reported slope for `Cc1ccc(Nc2nc(N)nc(CN3CCN(Cc4ccc5c(c4)OCO5)CC3)n2)cc1` strictly below 0.006?
1.0

###

# experimental.system: Alpha-2C adrenergic receptor (Homo sapiens) (UniProt P18825)
# experiment.summary: compounds altering alpha2C-coupled GIRK flux – cell-based, HEK293 alpha2C/GIRK1/2, thallium flux, primary screen (AID 624);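 note: slope of fluorescence ratio to pre-addition baseline per second over 15 to 24 s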
# assay.context: thallium flux BTC fluorescence, at 10 µM, actives lie on both sides
In this section, each of the compounds is paired with its reported slope.
Answer with the value's number alone.

Worked set:
Cc1cc(C)nc(SCc2nnc(SCC(=O)Nc3ncc(C)s3)n2Cc2ccco2)n1: 0.00544
COC(=O)C1=C(C)NC(C)=C(C(=O)OC)C1C(=O)OC1CCCCC1=O (stereo not given): 0.00528
O=C(COc1ccccc1)Nc1ccccc1N1CCN(c2ccccc2)CC1: 0.00412
COc1ccc(NC(=O)NCCN2C(=O)C3C4C=CC(C4)C3C2=O)cc1 (stereo not given): 0.00569
CC1=C(C(=O)N2CCOCC2)C(c2ccccc2F)C2=C(CCCC2=O)N1 (stereo not given): 0.00583
Nc1nc(CSc2nc3ccccc3[nH]2)nc(N2CCOCC2)n1: 0.00382
CCn1cc(C2=NOC(C(=O)Nc3c(C)nn(Cc4ccc(F)cc4)c3C)C2)c(C)n1 (stereo not given): 0.00617
C=CCOC(=O)CC(NC(=O)c1ccccc1)c1ccccc1 (stereo not given): 0.00447
COc1ccccc1NC(=O)NCc1ccc2c(c1)OCO2: 0.0055

Shifting focus to the compound that follows.
Given the compound `Cc1ccc(C)n1-c1ccc(-n2cnnn2)cc1` , what is its reported slope?
0.00396

Value source: PubChem BioAssay
